Assayed system: T1, CRBN, Q96SW2;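 also: pooled lentiviral library of zinc finger degron-EGFP fusions in mCherry-positive Jurkat cells, FACS-sorted after compound exposure, with degron abundance counted by next-generation sequencing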
T1 chain: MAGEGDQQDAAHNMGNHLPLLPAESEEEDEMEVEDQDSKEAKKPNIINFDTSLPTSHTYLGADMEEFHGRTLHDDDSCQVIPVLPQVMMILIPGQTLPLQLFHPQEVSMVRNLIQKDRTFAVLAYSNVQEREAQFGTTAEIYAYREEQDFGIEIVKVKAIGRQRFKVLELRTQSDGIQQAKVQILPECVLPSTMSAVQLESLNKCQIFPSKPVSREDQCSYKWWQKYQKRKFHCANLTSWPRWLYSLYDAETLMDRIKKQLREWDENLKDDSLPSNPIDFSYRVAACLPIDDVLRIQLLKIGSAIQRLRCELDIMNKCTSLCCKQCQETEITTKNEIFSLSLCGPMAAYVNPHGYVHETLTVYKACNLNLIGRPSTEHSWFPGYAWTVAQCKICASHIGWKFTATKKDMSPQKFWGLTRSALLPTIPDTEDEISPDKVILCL
Method: log2 fold change of degron read counts, EGFP-low vs EGFP+ sorted cells (limma voom), compound-induced degradation; higher = more compound-induced degradation of the degron-EGFP fusion; degrons are variants of IKZF1/3 zinc finger 2; compound dose not given here
Experimental conditions: Jurkat; 18 h; compound: thalidomide
In all, about 8,300 sequences were measured (“log2 fold change of degron read counts, EGFP-low vs EGFP+ sorted cells (limma voom), compound-induced degradation”: median about -1.1, highest 2% from about 3.2 on). The list comes from a sample in which the highest values are over-represented; it also holds close analogues and randomly drawn sequences.
Threshold rule: log2 fold change of degron read counts greater than or equal to 2 is Fulfilled; below that, Not fulfilled.

Check the entry FKCPVCGAPFTQKGNLLRHIKL [46F_47K_49P_50V_52G_53A_54P_55F_67L_, Q9UKT9] : does log2 fold change of degron read counts equal or exceed 2?
Fulfilled

Check the entry FDCPVCGAPFTQKGNLLRHIKL [46F_47D_49P_50V_52G_53A_54P_55F_67L_, Q9UKT9] : does log2 fold change of degron read counts equal or exceed 2?
Not fulfilled

Check the entry FGCPVCGAPFTQKGNLLRHIKL [46F_47G_49P_50V_52G_53A_54P_55F_67L_, Q9UKT9] : does log2 fold change of degron read counts equal or exceed 2?
Not fulfilled

Check the entry FLCPVCGAPFTQKGNLLRHIKL [46F_47L_49P_50V_52G_53A_54P_55F_67L_, Q9UKT9] : does log2 fold change of degron read counts equal or exceed 2?
Fulfilled

Check the entry FCCPVCGAPFTQKGNLLRHIKL [46F_47C_49P_50V_52G_53A_54P_55F_67L_, Q9UKT9] : does log2 fold change of degron read counts equal or exceed 2?
Fulfilled

Check the entry FICDVCGAPFTQKGNLLRHIKL [46F_47I_49D_50V_52G_53A_54P_55F_67L_, Q9UKT9] : does log2 fold change of degron read counts equal or exceed 2?
Not fulfilled

Check the entry FICNVCGAPFTQKGNLLRHIKL [46F_47I_49N_50V_52G_53A_54P_55F_67L_, Q9UKT9] : does log2 fold change of degron read counts equal or exceed 2?
Fulfilled
